Target: anti-CD28 scFv (VH - linker 1 - VL) (biotinylated (site not stated))
Sequence (scFv, as listed by the source): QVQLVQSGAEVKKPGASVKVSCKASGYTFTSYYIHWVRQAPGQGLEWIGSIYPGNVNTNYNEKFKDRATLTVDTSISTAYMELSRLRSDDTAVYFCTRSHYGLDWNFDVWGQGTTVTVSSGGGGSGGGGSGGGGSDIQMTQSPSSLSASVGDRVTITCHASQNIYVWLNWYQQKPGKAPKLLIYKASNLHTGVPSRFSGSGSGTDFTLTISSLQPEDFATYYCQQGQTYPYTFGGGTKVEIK
Experiment: phage ELISA as above, wells pre-incubated with soluble CD28 (competitor);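 further: ELISA of crude clonal phage supernatants added to wells pre-treated with soluble CD28 in blocking buffer, bound phage read out with HRP-conjugated anti-M13 antibody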
Where no end group is shown, it is not given here.
Would you mind telling me the reported CD28 scFv signal in presence of CD28 of each entry?
Just the number, please, no unit attached.

**Query** For the binder MNWCPTDLWHECFN (peptide, not shown: large carriers, Clonal phage of the Peptide-9 library) [Phage-162] , what CD28 scFv signal in presence of CD28 is on record?
**Result** 0.095

**Query** For the binder MDWCPFYLWDECFL (peptide, not shown: large carriers, Clonal phage of the Peptide-9 library) [Phage-165] , what CD28 scFv signal in presence of CD28 is on record?
**Result** 0.141

**Query** For the binder MNWCPSDLWHLCFN (peptide, not shown: large carriers, cysteine pairing not given here; also: displayed as fusion to phage pIII, linker and pIII sequence not given here, Clonal phage of the Peptide-9 library) [Phage-170] , what CD28 scFv signal in presence of CD28 is on record?
**Result** 0.131

**Query** For the binder MNWCPSHLWHMCYF (peptide, not shown: large carriers, cysteine pairing not given here; also: displayed as fusion to phage pIII, linker and pIII sequence not given here, Clonal phage of the Peptide-9 library) [Phage-171] , what CD28 scFv signal in presence of CD28 is on record?
**Result** 0.192

**Query** For the binder MDWCPKFLWDLCFA (peptide, not shown: large carriers, Clonal phage of the Peptide-9 library) [Phage-164] , what CD28 scFv signal in presence of CD28 is on record?
**Result** 0.139
